- Organism: Homo sapiens
- protocol details: Stabilization of human H12 G-quadruplex DNA assessed as change in melting temparature by circular dichroism analysis
quantity: ΔTm (°C)

given smiles: Cn1c2cccc(n2)n(C)c2cccc(n2)n(C)c2cccc(n2)n(C)c2cccc(n2)n(C)c2cccc(n2)n(C)c2cccc1n2
quantity: ΔTm
result units: °C
observed measurement: 7
--
given smiles: CN1c2cccc(n2)N(C)c2cccc(n2)N(C)c2cccc(n2)N(C)c2cccc(n2)N(C)c2cccc(n2)N(C)c2cccc(n2)N(C)c2cccc(n2)N(C)c2cccc1n2
quantity: ΔTm
result units: °C
observed measurement: 0
--
given smiles: CN1c2cccc(n2)N(C)c2cccc(n2)N(C)c2cccc(n2)N(C)c2cccc1n2
quantity: ΔTm
result units: °C
observed measurement: 0
--
given smiles: CN1c2cccc(n2)N(C)c2cccc(n2)N(C)c2cccc(n2)N(C)c2cccc(n2)N(C)c2cccc(n2)N(C)c2cccc(n2)N(C)c2cccc1n2
quantity: ΔTm
result units: °C
observed measurement: 0
--
given smiles: CN1c2cccc(n2)N(C)c2cccc(n2)N(C)c2cccc(n2)N(C)c2cccc(n2)N(C)c2cccc(n2)N(C)c2cccc(n2)N(C)c2cccc(n2)N(C)c2cccc(n2)N(C)c2cccc1n2
quantity: ΔTm
result units: °C
observed measurement: 0

* * *

- protocol details: Stabilization of TBA G-quadruplex DNA (unknown origin) assessed as change in melting temparature by circular dichroism analysis
Catalogue of ΔTm values

given smiles: CN1c2cccc(n2)N(C)c2cccc(n2)N(C)c2cccc(n2)N(C)c2cccc(n2)N(C)c2cccc(n2)N(C)c2cccc(n2)N(C)c2cccc(n2)N(C)c2cccc1n2
ΔTm / °C: 0

given smiles: Cn1c2cccc(n2)n(C)c2cccc(n2)n(C)c2cccc(n2)n(C)c2cccc(n2)n(C)c2cccc(n2)n(C)c2cccc1n2
ΔTm / °C: 0

given smiles: CN1c2cccc(n2)N(C)c2cccc(n2)N(C)c2cccc(n2)N(C)c2cccc(n2)N(C)c2cccc(n2)N(C)c2cccc(n2)N(C)c2cccc1n2
ΔTm / °C: 0

given smiles: CN1c2cccc(n2)N(C)c2cccc(n2)N(C)c2cccc(n2)N(C)c2cccc1n2
ΔTm / °C: 0

given smiles: CN1c2cccc(n2)N(C)c2cccc(n2)N(C)c2cccc(n2)N(C)c2cccc(n2)N(C)c2cccc(n2)N(C)c2cccc(n2)N(C)c2cccc(n2)N(C)c2cccc(n2)N(C)c2cccc1n2
ΔTm / °C: 0

* * *

- Organism: Homo sapiens
- protocol details: Stabilization of human T12 G-quadruplex DNA assessed as change in melting temparature by circular dichroism analysis

given smiles: CN1c2cccc(n2)N(C)c2cccc(n2)N(C)c2cccc(n2)N(C)c2cccc(n2)N(C)c2cccc(n2)N(C)c2cccc(n2)N(C)c2cccc(n2)N(C)c2cccc1n2
ΔTm, °C: 0
--
given smiles: CN1c2cccc(n2)N(C)c2cccc(n2)N(C)c2cccc(n2)N(C)c2cccc1n2
ΔTm, °C: 0
--
given smiles: CN1c2cccc(n2)N(C)c2cccc(n2)N(C)c2cccc(n2)N(C)c2cccc(n2)N(C)c2cccc(n2)N(C)c2cccc(n2)N(C)c2cccc(n2)N(C)c2cccc(n2)N(C)c2cccc1n2
ΔTm, °C: 0
--
given smiles: Cn1c2cccc(n2)n(C)c2cccc(n2)n(C)c2cccc(n2)n(C)c2cccc(n2)n(C)c2cccc(n2)n(C)c2cccc1n2
ΔTm, °C: 4
--
given smiles: CN1c2cccc(n2)N(C)c2cccc(n2)N(C)c2cccc(n2)N(C)c2cccc(n2)N(C)c2cccc(n2)N(C)c2cccc(n2)N(C)c2cccc1n2
ΔTm, °C: 0

Values from ChEMBL document CHEMBL3751678
